Documented GI50 across a set of compounds
# Test system: EKVX
# Experiment Description: NCI tumour cell line growth inhibition, 48 h
Activity calls are given as the source filed them. Rule as the data show it: active = GI50 up to about 1.1 µM and inactive = higher.
Measured Property: GI50

Compound: O=c1c2cc(I)ccc2nc(SCc2n[nH]c(=S)o2)n1Cc1ccccc1
Reported Measurement: 19.3 µM (inactive)
//
Compound: Cc1ccc(C)c(NC(=O)CC2C(=O)Nc3ccccc3S2(=O)=O)c1 (stereo not given)
Reported Measurement: 31.2 µM (inactive)
//
Compound: CCC1=NC(N/N=C/c2ccco2)=N/C1=C\c1ccco1
Reported Measurement: > 100 µM (inactive)
//
Compound: COC(=O)c1oc([N+](=O)[O-])c(Cl)c1Cl
Reported Measurement: 19.8 µM (inactive)
//
Compound: O=S1(=O)CCN(Cc2ccccc2)/C1=N\S(=O)(=O)c1ccc(Cl)cc1
Reported Measurement: 15.1 µM (inactive)
//
Compound: CCCCCCCCCCCC[N+]12CC[N+](CCN)(CC1)CC2
Reported Measurement: > 100 µM (inactive)
//
Compound: C#CC1(OC(C)=O)CCC2C3CC=C4C=C(OC(C)=O)CCC4(C)C3CCC21C (stereo not given)
Reported Measurement: 30.5 µM (inactive)
//
Compound: COc1ccc(CNc2nc3cc(C(F)(F)F)ccc3nc2C(=O)O)cc1OC
Reported Measurement: 31.8 µM (inactive)
//
Compound: COc1cc2cc(C(=O)N3CC(COS(C)(=O)=O)c4ccc(O)cc43)[nH]c2c(OC)c1OC (stereo not given)
Reported Measurement: 0.00082 µM (active)
//
Compound: CC(=O)N1C(=O)/C(=C\C(=O)c2ccc(Cl)cc2)c2ccccc21
Reported Measurement: 17.6 µM (inactive)
